Literature roundup of Tyrosine-protein kinase Fyn (Homo sapiens, UniProt P06241) data, read-out pKi.
pKi: −log10 of the molar value.

{"smilesCode": "O=C1N=C(N[C@@H]2C[C@H]2c2ccccc2)S/C1=C\\c1ccc2ncccc2c1", "targetOrTestSystem": "Tyrosine-protein kinase Fyn (Homo sapiens, UniProt P06241)", "pKi": "< 5.70"}
{"smilesCode": "NC1=NC(=O)/C(=C/c2ccc3ncccc3c2)S1", "targetOrTestSystem": "Tyrosine-protein kinase Fyn (Homo sapiens, UniProt P06241)", "pKi": "< 5.70"}
{"smilesCode": "CC(=O)Nc1cc(N)c(C#N)c(-c2ccccc2)n1", "targetOrTestSystem": "Tyrosine-protein kinase Fyn (Homo sapiens, UniProt P06241)", "pKi": "< 6.09"}
{"smilesCode": "CNc1cncc(-c2c[nH]c(=O)c(NC(=O)c3ccc(N4CCC[C@H]4CN4CCCC4)cc3)c2)n1", "targetOrTestSystem": "Tyrosine-protein kinase Fyn (Homo sapiens, UniProt P06241)", "pKi": "< 6.00"}
{"smilesCode": "Cc1cccc(Cl)c1NC(=O)c1ccc2nc(NC(=O)NC(C)(C)C)sc2c1", "targetOrTestSystem": "Tyrosine-protein kinase Fyn (Homo sapiens, UniProt P06241)", "pKi": 7.00}
{"smilesCode": "C=CCc1c(C)nc2sc3c(N)ncnc3c2c1C", "targetOrTestSystem": "Tyrosine-protein kinase Fyn (Homo sapiens, UniProt P06241)", "pKi": "< 5.30"}
{"smilesCode": "Cc1nc(Nc2n[nH]c3c2CN(C(=O)N[C@H](CN(C)C)c2ccccc2)C3(C)C)c2sccc2n1", "targetOrTestSystem": "Tyrosine-protein kinase Fyn (Homo sapiens, UniProt P06241)", "pKi": 7.59}
